Target: T1, Human CD19-his protein (human, UniProt P15391 20-291)
T1 construct: bought protein; also called human CD19 protein; recombinant human CD19-His; not shown: His tag
T1 sequence (looked up): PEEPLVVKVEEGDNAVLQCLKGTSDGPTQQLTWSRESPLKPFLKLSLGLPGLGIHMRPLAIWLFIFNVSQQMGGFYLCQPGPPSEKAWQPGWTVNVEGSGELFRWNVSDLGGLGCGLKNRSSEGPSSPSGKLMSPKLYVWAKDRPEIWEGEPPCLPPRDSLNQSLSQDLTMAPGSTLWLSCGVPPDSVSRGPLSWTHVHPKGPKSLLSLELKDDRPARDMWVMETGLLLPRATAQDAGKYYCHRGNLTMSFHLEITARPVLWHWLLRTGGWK
Experiment: ELISA, antibody at 0.10 nM
Entries and their measured OD450 follow.
readout.name: OD450

[[record]]
binder = "F5.3.6 (antibody, human IgG1, V domains shown, human-murine chimeric antibody, human IgG1) VH: DVQLQESGPGLVKPSQSQSLTCSVTGYSITSGYYWNWIRQFPGNKLEWMGYISYDGSNNYNPSLKNRISITRDTSKNQFFLKLNSVTTEDTVTYYCARAPLTGDRYWYFDVWGTGTTVTVSS VL: DIVLTQSPASLAVSLGQRATISCRASQSVSTSSYSYMHWYQQKPGQTPKLLIKYASNLKSGVPARFSGSGSGTDFTLNIHPVEEEDTATYYCQHSWEIPPTFGGGTKLEIK"
readout_name = "OD450"
recorded_result = 0.33

[[record]]
binder = "F6.12.12 (antibody, human IgG1, V domains shown, human-murine chimeric antibody, human IgG1) VH: DVQLQESGPGLVKPSQSLSLTCSVTGYSITSGYYWIWIRQFPGNKLEWMGYISYDASNKYKPSLKNRISITRDTSKNQFFLKLNSVTAEDTATYFCAREDLRGYFDVWGTGTSVTVSS VL: DIVLTQSPASLAVSLGRRATISCRASQSVSTSGFSYMHWYQQKPGQPPNLLIKYASILQSGVPARFSGSGSGTDFILNIHPVEDVDTATYYCQHSWGIPFTFGSGTKLEIK"
readout_name = "OD450"
recorded_result = 0.39

